Test system: RAW-Dual (murine macrophage reporter line)
protocol: IRF reporter (Lucia luciferase) activity fold change vs agonist alone; higher = enhanced IRF activity
particulars: modulator concentration 10 µM; agonist: MPLA […]
Give IRF reporter for every item shown.

Example entries begin here.
[
  {
    "compound": "Cc1ccc(-n2nnc3c(=O)n(CC(=O)N4CC(C)OC(C)C4)cnc32)cc1Cl (stereo unspecified)",
    "readout type": "IRF reporter",
    "observed value": 1.14
  },
  {
    "compound": "Cc1cc2c(C)cc[n+](CCCS(=O)(=O)[O-])c2cc1C",
    "readout type": "IRF reporter",
    "observed value": 1.3
  },
  {
    "compound": "CCN(CC)CCNc1ccc(CO)c2sc3ccccc3c(=O)c12 [Prestw-355]",
    "readout type": "IRF reporter",
    "observed value": 1.97
  },
  {
    "compound": "C(#Cc1ccc(C=Nc2nccs2)cc1)c1ccccc1",
    "readout type": "IRF reporter",
    "observed value": 1.15
  }
]

Hey, can you go through the list below and give me IRF reporter for every item?
1. Cc1cc(=O)n2c(-c3cccc(NC(=O)c4ccc(C(F)(F)F)cc4)c3)csc2n1
2. O=C(NC1CCN(c2ccc(C(F)(F)F)cn2)C1)c1nc2ccccc2s1 (stereo unspecified)
3. OCC1OC(Oc2ccc(O)cc2)C(O)C(O)C1O (stereo unspecified)
4. CC(Sc1ccc(Cl)cc1)C(=O)NCc1cccnc1 (stereo unspecified)
5. CC(C)C(=O)N1CCCc2ccc(NC(=O)COc3ccc4ccccc4c3)cc21
6. O=C(O)c1ccc(NC(=O)c2cccc(F)c2)cc1

1. 1.5
2. 1.11
3. 1.2
4. 0.741
5. 1.54
6. 0.994

Observed IRF reporter on RAW-Dual (murine macrophage reporter line) for CNC1CCC(c2ccc(Cl)c(Cl)c2)c2ccccc21.Cl (stereo unspecified) , please.
2.12
